Test system: Mus musculus
assay summary: Antiinflammatory activity in po dosed mouse assessed as inhibition of LPS-induced TNFalpha production administered 30 mins before LPS challenge measured after 1 hr by ELISA
Assay type: functional
settings: read-out: ID50 (the source's name)
Label yes (1) when ED50 is strictly below 6 mg/kg; at or above that, label no (0).

>  <compound>
CC1C=C(c2c[nH]c(-c3ccc(F)cc3)c2-c2ccncc2)CCN1C (stereo not given)

>  <tested target>
Mus musculus

>  <label>
yes (1)

$$$$
>  <compound>
CCCN1CCC(c2c[nH]c(-c3ccc(F)cc3)c2-c2ccncc2)=CC1C (stereo not given)

>  <tested target>
Mus musculus

>  <label>
yes (1)

$$$$
>  <compound>
CCN1CC=C(c2c[nH]c(-c3ccc(F)cc3)c2-c2ccncc2)CC1

>  <tested target>
Mus musculus

>  <label>
no (0)

$$$$

Input line: Dear reviewer, please state whether CCN1CCC(c2c[nH]c(-c3ccc(F)cc3)c2-c2ccncc2)=CC1C (stereo not given) has ED50 strictly beneath 6 mg/kg.
Output line: yes (1)

Input line: // query: CC1CC(c2c[nH]c(-c3ccc(F)cc3)c2-c2ccncc2)=CCN1C (stereo not given)
Output line: yes (1)

Input line: Another compound: CCCN1CC=C(c2c[nH]c(-c3ccc(F)cc3)c2-c2ccncc2)CC1
Output line: no (0)

Input line: Check CN1C(C)(C)C=C(c2c[nH]c(-c3ccc(F)cc3)c2-c2ccncc2)CC1(C)C too.
Output line: no (0)

Input line: Now try CN1CC=C(c2c[nH]c(-c3ccc(F)cc3)c2-c2ccncc2)CC1 .
Output line: yes (1)

Input line: Also, CC1C=C(c2c[nH]c(-c3ccc(F)cc3)c2-c2ccncc2)CCN1 (stereo not given) please.
Output line: yes (1)
